Attribution: PubChem BioAssay

experiment: probe aWnt5a binding to arrayed compounds – biochemical, biotinylated probe, 635/667 nm fluorescence, primary screen (AID 1113); details: small-molecule microarray, higher = more signal;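 note: score merges 667 nm fluorescence intensity with signal-to-noise per printed feature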
Could you please report measured composite z-score for the items listed next?
Numbers only.

CCCC=C(CCC)[C@@H](NS(=O)(=O)CC)c1ccccc1 | 0.0516
C=CCOC(=O)[C@@H]1[C@H]2C(=O)O[C@H](c3ccccc3)[C@H](c3ccccc3)N2[C@H](c2ccc(OCCOC(=O)[C@@H]3C[C@@H]4C(=O)N5CCC[C@H]5C(=O)N4[C@@H]3c3cccc(OCCO)c3)cc2)[C@@]12C(=O)Nc1ccc(I)cc12 | -0.0718
Cc1ccc(N2C(=O)c3ccccc3[C@](C)(C(=O)NC(C)C)[C@@H]2c2ccc(CO)cc2)nc1 | -0.219
CN(C)C(=O)[C@@]1(CCS(=O)(=O)c2ccccc2)N=C(c2ccc(OCCCO)cc2)O[C@H]1c1ccccc1CN=[N+]=[N-] | 0.063
COc1ccc([Si](C)(C)[C@H]2[C@H](CCn3cc(CCO)nn3)O[C@@]3(C(=O)N(Cc4cccc(N5C(=O)c6cccc7cccc5c67)c4)c4ccccc43)[C@@H]2C)cc1 | -0.136

// batch mode: one composite z-score value per listed entry
1. C[N+](C)(C)CCCC[C@@H]1NC(=O)[C@H]2C[C@@H](C(=O)NCCCCCCN)[C@@H](c3cccc(OCCO)c3)N2C1=O
2. CC(C)C[C@H]1NC(=O)[C@H](C)NC(=O)[C@@]23C(=O)N[C@@H](Cc4ccccc4)C2[C@H](C)[C@@]2(C)O[C@H]2C3/C=C/C/C=C\CNC1=O (some centres undefined)

1: 0.469; 2: -0.166

// batch mode: one composite z-score value per listed entry
1. C=CC[C@]1(C(=O)N2CCOCC2)N=C(c2ccc(OCCCO)cc2)O[C@H]1c1ccccc1CN=[N+]=[N-]
2. CN1C(=O)C2C=CC(C(O)c3cccc4ccccc34)N(NC(=O)OC(C)(C)C)C2C1=O (centres undefined)
3. CCOC(=O)C1=CC[C@@H](c2ccccc2)N(S(=O)(=O)c2ccc(C)cc2)[C@H]1C=C(C)C
4. COC(=O)[C@@]1(Cc2ccc(OC)cc2)[C@H]2c3cc(C(=O)N4CCCC4)n(Cc4ccc(C)o4)c3C[C@H]2CN1C(=O)c1ccccc1
5. NC(=O)NCC#Cc1ccc2c(c1)[C@]1(C(=O)N2)[C@H](c2ccc(O)cc2)N2[C@H](c3ccccc3)[C@H](c3ccccc3)OC(=O)[C@H]2[C@@H]1C(=O)NC[C@H](O)c1ccccc1
6. NCCCCCCNC(=O)[C@H]1C[C@H]2C(=O)N3CCC[C@H]3C(=O)N2[C@H]1c1ccc(O)cc1
7. O=C(C=C(CC(O)c1cccc(Cl)c1)OCCF)OCCF (centres undefined)

[0.127, -0.0512, 0.055, 0.457, -0.219, 0.15, -0.0678]

* * *

experiment: budding yeast growth modifiers under rapamycin – strain BY4716, OD600, 96 h, primary screen (AID 1091); note: test concentration not given here; conditions: S. cerevisiae BY4716 + rapamycin, higher = more signal, called active from +8 up or from −8 down
Could you please report measured z-score for the items listed next?
Numbers only.

Completed entries (count: 8):
COc1ccc([Si](C)(C)[C@@H]2[C@@H](CC(=O)N(CCO)Cc3ccccc3)O[C@]3(C(=O)N(Cc4ccc(N5CCOC5=O)cc4)c4ccccc43)[C@H]2C)cc1 | 2.92
CO[C@H]1O[C@H](CO)[C@@H](OC(=O)Nc2ccc(C(F)(F)F)cc2)[C@H](OC(=O)Nc2ccccc2)[C@H]1OC(=O)Nc1ccccc1 | 5.51
C=C[C@@H](O)[C@H]1CC(c2ccccc2)=NO1 | -0.657
CC(C)CN1C(=O)[C@@]2(Cc3ccccc31)c1ccccc1C(=O)N(Cc1ccccc1)[C@H]2c1ccc(CO)cc1 | -1.46
CC1=C2[C@@H](CCc3ccccc3)OB(O)C[C@@H]2[C@@H]2C(=O)C=CC(=O)[C@@H]2C1 | -0.679
C=CCC(OC(C)=O)[C@@H]1[C@@H](N(Cc2cccc3ccccc23)C(=O)Cc2ccc(F)cc2)c2cc(OCCCO)ccc2N1C(=O)Cc1ccc(OC)cc1 (some centres undefined) | -0.72
COc1ccc(C#Cc2ccc3c(c2)[C@]2(C(=O)N3)[C@H](C(=O)O)[C@H]3C(=O)O[C@H](c4ccccc4)[C@H](c4ccccc4)N3[C@@H]2c2ccc(OCCO)cc2)cc1 | 1.08
CN(C)CCCNC(=O)[C@@]1(Cc2ccccc2I)c2ccccc2C(=O)N(Cc2ccccc2Cl)[C@H]1c1ccc(CO)cc1 | -2.99

// batch mode: one z-score value per listed entry
1. COc1ccc(C(=O)Nc2ccc(CN3C(=O)[C@]4(O[C@H](CCn5cc([C@H](O)c6ccccc6)nn5)[C@@H]([Si](C)(C)c5ccc(OC)cc5)[C@@H]4C)c4ccccc43)cc2)cc1
2. CC(C)c1ccc(NN2C(C(O)c3ccccn3)C=CC3C(=O)N(c4ccccc4)C(=O)C32)cc1 (centres undefined)
3. CC(=O)NCCCC[C@@H]1NC(=O)[C@@H]2C[C@H](C(=O)NCCCC[N+](C)(C)C)[C@H](c3cccc(OCCO)c3)N2C1=O
4. O=C1CSC(c2cccc([N+](=O)[O-])c2)N1c1ccccc1 (centres undefined)
5. COc1ccc([Si](C)(C)[C@@H]2[C@@H](CCO)O[C@]3(C(=O)N(Cc4ccc(N5C(=O)c6ccccc6Oc6ccccc65)cc4)c4ccccc43)[C@H]2C)cc1
6. COCCOC(=O)N1C(=O)[C@@]2(c3cc(C#Cc4ccc(OC)cc4)ccc31)[C@H](C(N)=O)[C@H]1C(=O)O[C@H](c3ccccc3)[C@H](c3ccccc3)N1[C@@H]2c1ccc(OCCO)cc1

1. 1.61
2. -0.252
3. -0.465
4. 1.09
5. 37.6
6. 4.88
